molecular target: HDAC2 (Homo sapiens, UniProt Q92769); assay: HDAC2 colorimetric assay, substrate Boc-Lys(Ac)-AMC; format: biochemical
Sequence (Q92769 whole entry): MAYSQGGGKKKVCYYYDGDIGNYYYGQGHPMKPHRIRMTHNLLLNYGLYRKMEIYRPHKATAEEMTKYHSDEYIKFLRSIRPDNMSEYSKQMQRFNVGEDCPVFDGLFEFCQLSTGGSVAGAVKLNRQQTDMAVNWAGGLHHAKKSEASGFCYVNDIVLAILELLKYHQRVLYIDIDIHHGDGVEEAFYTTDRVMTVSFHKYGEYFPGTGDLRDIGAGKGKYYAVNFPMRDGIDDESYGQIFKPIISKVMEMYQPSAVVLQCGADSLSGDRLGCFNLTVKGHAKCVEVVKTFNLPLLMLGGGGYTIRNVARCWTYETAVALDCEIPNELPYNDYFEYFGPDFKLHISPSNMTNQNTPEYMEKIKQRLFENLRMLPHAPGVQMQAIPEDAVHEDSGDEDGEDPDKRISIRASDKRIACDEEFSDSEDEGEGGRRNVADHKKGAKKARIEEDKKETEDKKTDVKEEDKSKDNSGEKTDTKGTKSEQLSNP
pIC50: −log10 of the molar value.

>  <MOLECULE>
N=C1Sc2ccccc2C2=NCCCN12 [Compound 13a]

>  <pIC50>
4.49

$$$$

###

Let's go through some IC50 measurements on HDAC3 (Homo sapiens) together.
Sequence (O15379 whole entry): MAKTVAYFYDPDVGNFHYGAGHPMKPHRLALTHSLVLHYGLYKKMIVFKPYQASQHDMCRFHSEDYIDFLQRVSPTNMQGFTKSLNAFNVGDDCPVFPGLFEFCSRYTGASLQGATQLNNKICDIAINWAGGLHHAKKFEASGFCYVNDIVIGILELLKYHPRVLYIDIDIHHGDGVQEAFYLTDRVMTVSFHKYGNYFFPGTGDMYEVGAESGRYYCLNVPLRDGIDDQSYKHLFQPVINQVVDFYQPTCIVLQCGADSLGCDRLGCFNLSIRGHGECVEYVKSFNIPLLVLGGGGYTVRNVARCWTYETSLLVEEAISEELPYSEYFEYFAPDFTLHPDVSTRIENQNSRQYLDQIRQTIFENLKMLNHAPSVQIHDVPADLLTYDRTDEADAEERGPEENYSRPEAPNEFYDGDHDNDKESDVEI
Sequence (Q9Y618 395-489 partner limits assumed): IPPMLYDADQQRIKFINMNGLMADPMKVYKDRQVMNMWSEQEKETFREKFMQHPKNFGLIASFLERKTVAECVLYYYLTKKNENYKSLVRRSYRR
QUANTITY_MEASURED: IC50

>  <MOLECULE>
N=C1Sc2cc(F)ccc2C2=NCCCN12 [Compound 13f]

>  <EXPERIMENTAL_TARGET>
HDAC3 (Homo sapiens)

>  <REPORTED_MEASUREMENT>
10 µM

$$$$
>  <MOLECULE>
N=C1Sc2c(F)cccc2C2=NCCCN12 [Compound 13h]

>  <EXPERIMENTAL_TARGET>
HDAC3 (Homo sapiens)

>  <REPORTED_MEASUREMENT>
> 50 µM

$$$$
>  <MOLECULE>
Cc1cccc2c1C1=NCCCN1C(=N)S2 [Compound 13m]

>  <EXPERIMENTAL_TARGET>
HDAC3 (Homo sapiens)

>  <REPORTED_MEASUREMENT>
9.6 µM

$$$$
>  <MOLECULE>
N=C1Sc2ccccc2C2=NCCN12 [Compound 13b]

>  <EXPERIMENTAL_TARGET>
HDAC3 (Homo sapiens)

>  <REPORTED_MEASUREMENT>
> 50 µM

$$$$
>  <MOLECULE>
CN(C)c1ccc2c(c1)SC(=N)N1CCCN=C21 [Compound 13d]

>  <EXPERIMENTAL_TARGET>
HDAC3 (Homo sapiens)

>  <REPORTED_MEASUREMENT>
> 50 µM

$$$$
>  <MOLECULE>
N=C1Sc2ccc(F)cc2C2=NCCCN12 [Compound 13l]

>  <EXPERIMENTAL_TARGET>
HDAC3 (Homo sapiens)

>  <REPORTED_MEASUREMENT>
5.3 µM

$$$$
>  <MOLECULE>
Cc1ccc2c(c1)SC(=N)N1CCCN=C21 [Compound 13k]

>  <EXPERIMENTAL_TARGET>
HDAC3 (Homo sapiens)

>  <REPORTED_MEASUREMENT>
26 µM

$$$$
>  <MOLECULE>
N=C1Sc2cccc(Br)c2C2=NCCCN12 [Compound 13j]

>  <EXPERIMENTAL_TARGET>
HDAC3 (Homo sapiens)

>  <REPORTED_MEASUREMENT>
7 µM

$$$$
>  <MOLECULE>
N=C1Sc2ccc(Cl)cc2C2=NCCN12 [Compound 13c]

>  <EXPERIMENTAL_TARGET>
HDAC3 (Homo sapiens)

>  <REPORTED_MEASUREMENT>
> 50 µM

$$$$
>  <MOLECULE>
N=C1Sc2cc(Br)ccc2C2=NCCCN12 [Compound 13g]

>  <EXPERIMENTAL_TARGET>
HDAC3 (Homo sapiens)

>  <REPORTED_MEASUREMENT>
6.7 µM

$$$$
>  <MOLECULE>
N=C1Sc2ccc(Cl)cc2C2=NCCCN12 [Compound 13e]

>  <EXPERIMENTAL_TARGET>
HDAC3 (Homo sapiens)

>  <REPORTED_MEASUREMENT>
20 µM

$$$$
>  <MOLECULE>
N=C1Sc2c(F)cccc2C2=NCCN12 [Compound 13i]

>  <EXPERIMENTAL_TARGET>
HDAC3 (Homo sapiens)

>  <REPORTED_MEASUREMENT>
> 50 µM

$$$$

###

tested on: T cell leukemia cell line JURKAT; assay: Growth inhibition of cancer cell line, resazurin assay; settings: Homo sapiens, Jurkat, read-out: GI50 JURKAT
GI50 values for the compounds below.

>  <COMPOUND>
N=C1Sc2cc(Br)ccc2C2=NCCCN12 [Compound 13g]

>  <GI50 (µM)>
30

$$$$
>  <COMPOUND>
N=C1Sc2c(F)cccc2C2=NCCN12 [Compound 13i]

>  <GI50 (µM)>
24

$$$$
>  <COMPOUND>
N=C1Sc2ccccc2C2=NCCN12 [Compound 13b]

>  <GI50 (µM)>
558

$$$$
>  <COMPOUND>
N=C1Sc2ccc(F)cc2C2=NCCCN12 [Compound 13l]

>  <GI50 (µM)>
16

$$$$
>  <COMPOUND>
Cc1ccc2c(c1)SC(=N)N1CCCN=C21 [Compound 13k]

>  <GI50 (µM)>
36

$$$$
>  <COMPOUND>
Cc1cccc2c1C1=NCCCN1C(=N)S2 [Compound 13m]

>  <GI50 (µM)>
23

$$$$
>  <COMPOUND>
CN(C)c1ccc2c(c1)SC(=N)N1CCCN=C21 [Compound 13d]

>  <GI50 (µM)>
153

$$$$
>  <COMPOUND>
N=C1Sc2ccc(Cl)cc2C2=NCCN12 [Compound 13c]

>  <GI50 (µM)>
67

$$$$
>  <COMPOUND>
N=C1Sc2ccccc2C2=NCCCN12 [Compound 13a]

>  <GI50 (µM)>
63

$$$$
>  <COMPOUND>
N=C1Sc2c(F)cccc2C2=NCCCN12 [Compound 13h]

>  <GI50 (µM)>
42

$$$$
>  <COMPOUND>
N=C1Sc2cc(F)ccc2C2=NCCCN12 [Compound 13f]

>  <GI50 (µM)>
33

$$$$
>  <COMPOUND>
O=C(CCCCCCC(=O)Nc1ccccc1)NO [Compound 1, Vorinostat, reference compound]

>  <GI50 (µM)>
3.7

$$$$
>  <COMPOUND>
N=C1Sc2cccc(Br)c2C2=NCCCN12 [Compound 13j]

>  <GI50 (µM)>
17

$$$$
>  <COMPOUND>
N=C1Sc2ccc(Cl)cc2C2=NCCCN12 [Compound 13e]

>  <GI50 (µM)>
56

$$$$

###

system: breast cancer cell line MCF-7; assay: Growth inhibition of cancer cell line, resazurin assay; assay type: cell-based, Human; details: Homo sapiens, MCF7; Table 2, resazurin assay

>  <MOLECULE>
N=C1Sc2cccc(Br)c2C2=NCCCN12 [Compound 13j]

>  <GI50>
11 µM

$$$$
>  <MOLECULE>
N=C1Sc2ccc(Cl)cc2C2=NCCCN12 [Compound 13e]

>  <GI50>
> 1000 µM

$$$$
>  <MOLECULE>
Cc1ccc2c(c1)SC(=N)N1CCCN=C21 [Compound 13k]

>  <GI50>
44 µM

$$$$
>  <MOLECULE>
N=C1Sc2c(F)cccc2C2=NCCCN12 [Compound 13h]

>  <GI50>
> 1000 µM

$$$$
>  <MOLECULE>
CN(C)c1ccc2c(c1)SC(=N)N1CCCN=C21 [Compound 13d]

>  <GI50>
200 µM

$$$$
>  <MOLECULE>
N=C1Sc2cc(Br)ccc2C2=NCCCN12 [Compound 13g]

>  <GI50>
> 1000 µM

$$$$
>  <MOLECULE>
N=C1Sc2cc(F)ccc2C2=NCCCN12 [Compound 13f]

>  <GI50>
> 1000 µM

$$$$
>  <MOLECULE>
N=C1Sc2ccc(F)cc2C2=NCCCN12 [Compound 13l]

>  <GI50>
79 µM

$$$$
>  <MOLECULE>
O=C(CCCCCCC(=O)Nc1ccccc1)NO [Compound 1, Vorinostat, reference compound]

>  <GI50>
3.7 µM

$$$$
>  <MOLECULE>
N=C1Sc2ccc(Cl)cc2C2=NCCN12 [Compound 13c]

>  <GI50>
60 µM

$$$$

###

target: HDAC1 (Homo sapiens); experiment: HDAC1 colorimetric assay, substrate Boc-Lys(Ac)-AMC; details: IC50 HDAC1, Table 1
Sequence (Q13547 whole entry): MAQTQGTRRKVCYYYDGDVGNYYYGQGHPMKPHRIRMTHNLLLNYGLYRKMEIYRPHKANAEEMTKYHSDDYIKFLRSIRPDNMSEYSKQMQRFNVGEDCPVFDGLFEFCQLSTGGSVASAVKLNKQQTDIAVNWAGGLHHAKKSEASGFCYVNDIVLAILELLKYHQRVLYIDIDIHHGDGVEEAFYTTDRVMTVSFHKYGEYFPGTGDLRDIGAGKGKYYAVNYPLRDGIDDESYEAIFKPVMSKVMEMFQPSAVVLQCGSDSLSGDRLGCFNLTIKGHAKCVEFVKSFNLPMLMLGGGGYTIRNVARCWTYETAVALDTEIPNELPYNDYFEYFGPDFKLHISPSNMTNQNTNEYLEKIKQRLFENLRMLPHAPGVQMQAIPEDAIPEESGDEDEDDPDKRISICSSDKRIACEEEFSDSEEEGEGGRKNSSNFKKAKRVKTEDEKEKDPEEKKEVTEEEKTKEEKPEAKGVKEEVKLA
pIC50: −log10 of the molar value.

>  <COMPOUND>
Cc1ccc2c(c1)SC(=N)N1CCCN=C21 [Compound 13k]

>  <EXPERIMENTAL_TARGET>
HDAC1 (Homo sapiens)

>  <VALUE_PREFIX>
=

>  <pIC50>
5.24

$$$$
>  <COMPOUND>
N=C1Sc2cc(Br)ccc2C2=NCCCN12 [Compound 13g]

>  <EXPERIMENTAL_TARGET>
HDAC1 (Homo sapiens)

>  <VALUE_PREFIX>
=

>  <pIC50>
5.77

$$$$
>  <COMPOUND>
N=C1Sc2cc(F)ccc2C2=NCCCN12 [Compound 13f]

>  <EXPERIMENTAL_TARGET>
HDAC1 (Homo sapiens)

>  <VALUE_PREFIX>
=

>  <pIC50>
5.54

$$$$
>  <COMPOUND>
N=C1Sc2ccc(Cl)cc2C2=NCCN12 [Compound 13c]

>  <EXPERIMENTAL_TARGET>
HDAC1 (Homo sapiens)

>  <VALUE_PREFIX>
=

>  <pIC50>
4.68

$$$$
>  <COMPOUND>
N=C1Sc2ccccc2C2=NCCN12 [Compound 13b]

>  <EXPERIMENTAL_TARGET>
HDAC1 (Homo sapiens)

>  <VALUE_PREFIX>
<

>  <pIC50>
4.30

$$$$
>  <COMPOUND>
N=C1Sc2ccccc2C2=NCCCN12 [Compound 13a]

>  <EXPERIMENTAL_TARGET>
HDAC1 (Homo sapiens)

>  <VALUE_PREFIX>
=

>  <pIC50>
5.44

$$$$
>  <COMPOUND>
Cc1cccc2c1C1=NCCCN1C(=N)S2 [Compound 13m]

>  <EXPERIMENTAL_TARGET>
HDAC1 (Homo sapiens)

>  <VALUE_PREFIX>
=

>  <pIC50>
5.43

$$$$
>  <COMPOUND>
N=C1Sc2c(F)cccc2C2=NCCCN12 [Compound 13h]

>  <EXPERIMENTAL_TARGET>
HDAC1 (Homo sapiens)

>  <VALUE_PREFIX>
=

>  <pIC50>
4.46

$$$$
>  <COMPOUND>
N=C1Sc2c(F)cccc2C2=NCCN12 [Compound 13i]

>  <EXPERIMENTAL_TARGET>
HDAC1 (Homo sapiens)

>  <VALUE_PREFIX>
<

>  <pIC50>
4.30

$$$$
>  <COMPOUND>
N=C1Sc2cccc(Br)c2C2=NCCCN12 [Compound 13j]

>  <EXPERIMENTAL_TARGET>
HDAC1 (Homo sapiens)

>  <VALUE_PREFIX>
=

>  <pIC50>
5.59

$$$$
>  <COMPOUND>
N=C1Sc2ccc(F)cc2C2=NCCCN12 [Compound 13l]

>  <EXPERIMENTAL_TARGET>
HDAC1 (Homo sapiens)

>  <VALUE_PREFIX>
=

>  <pIC50>
5.68

$$$$

meta.source: patent US20210220370A1
